Values compiled from PubChem BioAssay AID770.

assay: HT29 colon tumor cell growth inhibition, primary screen, imaging, high content imaging, 24 h, CellTiter-Glo (AID 770); conditions: HT29 cell number by imaging, measured here: percent cells with condensed nuclei, at 10 µM, stronger effect = higher value;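 further: share of cells whose nuclear area falls below control median minus 1.5 SD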
Among all 3,300 compounds or so, fewer than 10 were called active. The list is a sample of the results.
measurement_name: condensed nuclei
Hey, just the number and the unit after it is fine.

Answered cases to consult:
| compound | condensed nuclei |
| --- | --- |
| CC1(C)CC(N(Cc2ccco2)C(=O)Cc2ccccc2)CCO1 (configuration not stated) | 2.03% |
| CCCCCC(=O)N1CC2(C)CN(C(=O)CCCCC)CC(C)(C1)C2=O | 1.67% |
| CN1CCN(CCCN2c3ccccc3Sc3ccc(C(F)(F)F)cc32)CC1 | 15.7% |

Prompt: For the compound shown here, COc1nc(NS(=O)(=O)c2ccc(C)cc2)nc(C)c1Cl , give the reported condensed nuclei.
Completion: 2.47%

Prompt: Same again, this time with CCOC(=O)c1cc(CC)sc1NC(=O)C1CC1
Completion: 2.27%

Prompt: Same again, this time with CN1CCc2c(n(CC(O)CN3C(=O)c4ccccc4S3(=O)=O)c3ccccc23)C1=O (configuration not stated)
Completion: 8.09%

Prompt: Same again, this time with CCOc1ccc2c(C)nc(NC3=NC(C)(C)C=C(C)N3)nc2c1
Completion: 3.47%

Prompt: Same again, this time with CCOC(=O)c1[nH]c2cc3c(cc2c1NC(=O)CN1CCC(C)CC1)OCO3
Completion: 3.55%

Prompt: Same again, this time with COC(=O)c1cc(Br)c(=O)n(Cc2cccnc2)c1
Completion: 1.99%

Prompt: Same again, this time with C=CCc1c(C)nc(SCCC)[nH]c1=O
Completion: 4.83%
